Listing: whole-cell filipin (z-score) of selected compounds
# System: HeLa MZ
# TEST NAME: whole-cell filipin (free cholesterol) integrated intensity, Z-score; higher = more cholesterol staining
# APPLIED CONDITIONS: compound concentration in added solution (µM; 5 µl added to 20 µl cells): 10; 18 h
Counter-ions that a name gives are not always drawn.

COMPOUND | whole-cell filipin (z-score)
CN(C)CCOC(c1ccccc1)c1ccccc1 [Diphenhydramine hydrochloride] | -0.63
NC(=O)c1ccc[n+]([C@@H]2O[C@H](COP(=O)([O-])OP(=O)(O)OC[C@H]3O[C@@H](n4cnc5c(N)ncnc54)[C@H](O)[C@@H]3O)[C@@H](O)[C@H]2O)c1 [Nadide] | -0.46
Cc1cccc(Nc2ccncc2S(=O)(=O)NC(=O)NC(C)C)c1 [Torsemide] | 0.228
CCCCC(C)(O)C/C=C/[C@H]1[C@H](O)CC(=O)[C@@H]1CCCCCCC(=O)OC (mixture of isomers) [Misoprostol] | -0.741
CC1(C)NC(=O)N(c2ccc([N+](=O)[O-])c(C(F)(F)F)c2)C1=O [Nilutamide] | -0.711
CCN(CC)C(=S)SSC(=S)N(CC)CC [Disulfiram] | 0.0194
Oc1c(Cl)cc(Cl)c2cccnc12 [Chloroxine] | -1.27
CCn1cc(C(=O)O)c(=O)c2cnc(N3CCCC3)nc21 [Piromidic acid] | 0.123
CCOC(=O)C(C)(C)Oc1ccc(Cl)cc1 [Clofibrate] | -0.429
COC(=O)C1=C(C)NC(C)=C(C(=O)OCCN(C)Cc2ccccc2)C1c1cccc([N+](=O)[O-])c1 (stereo not drawn) [Nicardipine hydrochloride] | -0.142
CCOC(=O)/C=C(C)/C=C/C=C(C)/C=C/c1c(C)cc(OC)c(C)c1C [Etretinate] | -0.112
COc1ccccc1N1CCN(CCCCNC(=O)c2ccc3ccccc3c2)CC1 | 2.22
COc1ccc(/C=C/C(=O)Nc2ccccc2C(=O)O)cc1OC [Tranilast] | -0.648
Cc1cc(NS(=O)(=O)c2ccc(N)cc2)no1 [Sulfamethoxazole] | -0.158
COc1cc(Cc2cnc(N)nc2N)cc(OC)c1OC [Trimethoprim] | -0.667
CCCOc1cc(N)ccc1C(=O)OCCN(CC)CC [Propoxycaine hydrochloride] | 0.62
NC(=O)NC1NC(=O)NC1=O (stereo not drawn) [Allantoin] | -0.573
CN(C)CCOC(C)(c1ccccc1)c1ccccn1 (stereo not drawn) [Doxylamine succinate] | -0.502
c1cnc(N2CCN(Cc3ccc4c(c3)OCO4)CC2)nc1 [Piribedil hydrochloride] | 1.93
C[C@]12CCC(=O)C=C1CC[C@@H]1[C@@H]2C(=O)C[C@@]2(C)[C@H]1CC[C@]2(O)C(=O)CO [Cortisone] | -0.61
CC[N+](CC)(CC(=O)Nc1c(C)cccc1C)Cc1ccccc1 [Denatonium benzoate] | -0.0671
CCC1NC(=O)c2cc(S(N)(=O)=O)c(Cl)cc2N1 (stereo not drawn) [Quinethazone] | 0.147
CC(=O)N(CC(O)CO)c1c(I)c(C(=O)NCC(O)CO)c(I)c(C(=O)NCC(O)CO)c1I (stereo not drawn) [Iohexol] | -0.949
CC(C)(C)C(=O)OCOC(=O)[C@@H]1N2C(=O)[C@@H](/N=C/N3CCCCCC3)[C@H]2SC1(C)C [Pivmecillinam hydrochloride] | -0.0756
Fc1ccc([C@@H]2CCNC[C@H]2COc2ccc3c(c2)OCO3)cc1 [Paroxetine Hydrochloride] | -0.28
COc1ccc(NS(=O)(=O)c2ccc(N)cc2)nn1 [Sulfamethoxypyridazine] | -0.237
O=C(c1ccc(OCCN2CCCCC2)cc1)c1c(-c2ccc(O)cc2)sc2cc(O)ccc12 [Raloxifene hydrochloride] | 2.28
O=C(CCCN1CC=C(n2c(=O)[nH]c3ccccc32)CC1)c1ccc(F)cc1 [Droperidol] | 0.978
Cc1c(Cl)cccc1Nc1ncccc1C(=O)O [Clonixin Lysinate] | -0.353
CC1(C)O[C@@H]2C[C@H]3[C@@H]4C[C@H](F)C5=CC(=O)CC[C@]5(C)[C@H]4[C@@H](O)C[C@]3(C)[C@]2(C(=O)CO)O1 [Flurandrenolide] | 0.429
CC[C@H]1OC(=O)[C@H](C)[C@@H](O[C@H]2C[C@@](C)(OC)[C@@H](O)[C@H](C)O2)[C@H](C)[C@@H](O[C@@H]2O[C@H](C)C[C@H](N(C)C)[C@H]2O)[C@](C)(O)C[C@@H](C)CN(C)[C@H](C)[C@@H](O)[C@]1(C)O [Azithromycin] | 0.115
CN1CCN2c3ncccc3Cc3ccccc3C2C1 (stereo not drawn) [Mirtazapine] | 0.74
Cc1cc(C(C)(C)C)cc(C)c1CC1=NCCN1 [Xylometazoline hydrochloride] | 0.463
